Assay: In vivo kinetics of FA incorporation and turnover in brain phospholipids (intravenous radiotracer infusion, kinetic model)
Parameters: species or system rat
Details: PtdIns; Vehicle
Procedure: Twenty-four hours postsurgery, a second catheter (iv catheter 24 gauge/0.75 inch, Angiocath™; Becton Dickinson) was implanted into the tail vein where rats received either vehicle or 10 mg/kg of MEP. […] The radiotracers were infused for 5 min via the tail vein catheter at a rate of 0.223(1 + e^−19.2t) ml/min (t is infusion time in minutes) ([37]) which achieves a steady-state plasma radioactivity within 1 min ([18], [38]). […]
Catalogue of FFA rate of turnover readings, one per entry.
Expressed in %/day, but write only the number.

> print(dat)
                                   molecule  result.value
1  CC/C=C\C/C=C\C/C=C\C/C=C\C/C=C\CCCCCC(=O)O           336
2  CC/C=C\C/C=C\C/C=C\C/C=C\C/C=C\C/C=C\CCC(=O)O           458
3  CCCCCCCCCCCCCCCC(=O)O [Palmitate, [1-14C]palmitate]           292

Switching to the query record.
Recorded FFA rate of turnover for `CC/C=C\C/C=C\C/C=C\C/C=C\C/C=C\CCCC(=O)O` , please? 24

Where these numbers come from: paper PMC3735939
